Catalogue of % positive cells readings, one per entry.
# target-of-assay: T1, human CCR8 (human, UniProt P51685 1-355)
# T1 construct: also called hCCR8; CC chemokine receptor 8
# measurement-notes: flow cytometry, hCCR8-transfected CHO-K1 cells
Expressed in %, but write only the number.

Below: 3 binders and their reported % positive cells.
[[record]]
binder = "anti-CCR8 mAb 1-6 (antibody, V domains shown, Murine hybridoma mAb) VH: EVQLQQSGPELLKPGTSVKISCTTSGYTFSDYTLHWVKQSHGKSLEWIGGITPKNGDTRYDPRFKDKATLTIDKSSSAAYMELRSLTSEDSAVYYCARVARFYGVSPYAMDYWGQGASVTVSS VL: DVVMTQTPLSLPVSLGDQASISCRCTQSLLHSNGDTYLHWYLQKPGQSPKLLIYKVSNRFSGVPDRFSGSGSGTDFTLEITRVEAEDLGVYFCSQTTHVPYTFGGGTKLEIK"
readout_units = "%"
result_number = 81.1

[[record]]
binder = "anti-CCR8 mAb 1-11 (antibody, V domains shown, Murine hybridoma mAb) VH: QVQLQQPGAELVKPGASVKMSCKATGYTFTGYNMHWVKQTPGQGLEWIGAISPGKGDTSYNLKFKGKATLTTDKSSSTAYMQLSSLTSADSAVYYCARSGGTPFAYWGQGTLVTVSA VL: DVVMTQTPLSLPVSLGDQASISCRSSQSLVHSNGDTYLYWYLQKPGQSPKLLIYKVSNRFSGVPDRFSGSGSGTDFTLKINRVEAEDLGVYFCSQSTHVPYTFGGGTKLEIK"
readout_units = "%"
result_number = 76.2

[[record]]
binder = "anti-CCR8 mAb 1-17 (antibody, V domains shown, Murine hybridoma mAb) VH: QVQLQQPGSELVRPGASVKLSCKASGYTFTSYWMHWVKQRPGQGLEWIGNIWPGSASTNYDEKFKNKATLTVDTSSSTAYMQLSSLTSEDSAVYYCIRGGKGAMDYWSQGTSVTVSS VL: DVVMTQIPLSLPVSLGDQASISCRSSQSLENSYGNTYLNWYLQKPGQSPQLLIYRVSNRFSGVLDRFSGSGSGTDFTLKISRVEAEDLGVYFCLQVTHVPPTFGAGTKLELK"
readout_units = "%"
result_number = 81.6


Recorded % positive cells of anti-CCR8 mAb 1-4 (antibody, V domains shown, Murine hybridoma mAb) VH: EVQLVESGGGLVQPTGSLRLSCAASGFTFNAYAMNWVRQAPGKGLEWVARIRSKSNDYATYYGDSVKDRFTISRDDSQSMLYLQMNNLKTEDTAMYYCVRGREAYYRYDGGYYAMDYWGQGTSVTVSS VL: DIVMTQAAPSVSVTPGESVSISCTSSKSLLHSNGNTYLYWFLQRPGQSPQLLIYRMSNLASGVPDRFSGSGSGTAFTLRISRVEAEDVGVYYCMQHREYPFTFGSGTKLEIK , please. 66.8

For the binder shown here, anti-CCR8 mAb 1-15 (antibody, V domains shown, Murine hybridoma mAb) VH: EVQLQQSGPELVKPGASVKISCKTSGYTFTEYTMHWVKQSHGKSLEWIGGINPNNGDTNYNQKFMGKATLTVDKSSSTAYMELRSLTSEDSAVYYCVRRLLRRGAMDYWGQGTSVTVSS VL: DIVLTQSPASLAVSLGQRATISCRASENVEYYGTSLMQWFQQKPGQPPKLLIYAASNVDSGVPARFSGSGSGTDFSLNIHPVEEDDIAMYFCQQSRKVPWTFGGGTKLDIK , give the reported % positive cells. 73.4

If you can, please state the reported % positive cells value of anti-CCR8 mAb 1-13 (antibody, V domains shown, Murine hybridoma mAb) VH: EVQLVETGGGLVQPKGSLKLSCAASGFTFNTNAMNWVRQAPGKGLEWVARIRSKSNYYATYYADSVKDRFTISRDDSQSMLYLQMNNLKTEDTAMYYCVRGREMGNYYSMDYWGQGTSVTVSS VL: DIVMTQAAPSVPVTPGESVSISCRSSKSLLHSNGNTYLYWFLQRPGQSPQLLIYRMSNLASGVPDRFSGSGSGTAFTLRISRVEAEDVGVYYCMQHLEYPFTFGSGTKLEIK . 64.7

Item anti-CCR8 mAb 1-18 (antibody, V domains shown, Murine hybridoma mAb) VH: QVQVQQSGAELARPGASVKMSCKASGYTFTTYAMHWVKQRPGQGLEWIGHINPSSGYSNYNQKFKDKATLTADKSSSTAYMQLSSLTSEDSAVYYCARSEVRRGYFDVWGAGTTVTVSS VL: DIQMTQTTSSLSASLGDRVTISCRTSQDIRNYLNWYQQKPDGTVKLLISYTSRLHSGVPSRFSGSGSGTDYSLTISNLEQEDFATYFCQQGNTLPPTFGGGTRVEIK has what recorded % positive cells? 77

Give the measured % positive cells of anti-CCR8 mAb 1-2 (antibody, V domains shown, Murine hybridoma mAb) VH: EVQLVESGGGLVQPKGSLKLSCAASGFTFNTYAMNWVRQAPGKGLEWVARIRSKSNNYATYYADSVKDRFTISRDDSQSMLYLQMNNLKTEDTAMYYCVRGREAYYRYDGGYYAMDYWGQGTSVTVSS VL: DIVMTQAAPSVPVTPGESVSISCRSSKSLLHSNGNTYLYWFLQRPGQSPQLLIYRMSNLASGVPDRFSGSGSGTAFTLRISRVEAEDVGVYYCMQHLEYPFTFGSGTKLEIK . 90.6

GET /values?readout=% positive cells&item= anti-CCR8 mAb 1-14 (antibody, V domains shown, Murine hybridoma mAb) VH: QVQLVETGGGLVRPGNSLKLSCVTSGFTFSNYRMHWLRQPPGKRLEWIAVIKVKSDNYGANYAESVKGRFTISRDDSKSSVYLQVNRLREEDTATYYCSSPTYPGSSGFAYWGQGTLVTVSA VL: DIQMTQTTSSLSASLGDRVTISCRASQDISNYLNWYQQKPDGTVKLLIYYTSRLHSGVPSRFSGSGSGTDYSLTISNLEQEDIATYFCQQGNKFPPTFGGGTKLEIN 83

Recorded % positive cells of anti-CCR8 mAb 1-5 (antibody, V domains shown, Murine hybridoma mAb) VH: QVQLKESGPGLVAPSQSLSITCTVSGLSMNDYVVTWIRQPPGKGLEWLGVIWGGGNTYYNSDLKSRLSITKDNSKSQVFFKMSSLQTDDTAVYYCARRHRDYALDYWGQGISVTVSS VL: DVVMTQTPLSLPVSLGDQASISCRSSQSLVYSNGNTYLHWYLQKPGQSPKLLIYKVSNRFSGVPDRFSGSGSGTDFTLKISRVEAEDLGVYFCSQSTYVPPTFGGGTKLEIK , please. 85.2

Where do these numbers come from? They come from patent US20260132208A1.
